meta.source: patent US10253078

Here the recorded EC50 hGLP1 R (cAMP, HEK293 cells expressing the GLP-1R) is given for each entry.
SYSTEM: human GLP-1 receptor (human, UniProt P43220 24-463)
EXPERIMENT SUMMARY: cell-based or functional assay
Starred links: 1 amine or outer side, 2 acyl side, 3 side chain; linkers in the order of their positions; H or OH if unused. Non-standard residues stand in square brackets, D forms with d. Groups on a side chain read outwards from the residue. *: point of attachment. C20 diacid = O=C(O)CCCCCCCCCCCCCCCCCCC(=O)*; γGlu = O=C(O)[C@H](CCC(=O)[*:2])N[*:1]; Aib = CC(C)(N)C(=O)O

H-Y[Aib]EGTFISDYSIELDK([Peg3-Peg3-γGlu-C20 diacid])IAQRAFIEWLLAQGPSSGAPPPS-NH2 [Compound 34] ... > 10 nM
H-Y[Aib]EGTFISDYSIELDKK([Peg3-Peg3-γGlu-C20 diacid])AAQDFIEWLLAQGPSSGAPPPS-NH2 [Compound 38] ... > 100 nM

The value of EC50 hGLP1 R (cAMP, HEK293 cells expressing the GLP-1R) measured for the binder YAEGTFISDYSIELDKKAQRAFIEWLLAQGPSSGAPPPS (Aib at 2; Lys 17 side chain acylated: K((19-Carboxy-nonadecanoyl)-[(Piperazine-1-yl)-acetyl]-Peg3-Peg3); C-terminal amide (-NH2)) [Compound 19] turned out to be > 3 nM
